# EXPERIMENTAL PROTOCOL: Biodistribution of ^131 I-3 in CD-1 Mice, normal and blocked with lisinopril
# Format: in vivo
# CONDITION SET: mouse, kidney, iv, 1 uCi, 1.5 hours, blocked (lisinopril); read-out: Biodistribution, Kidney
# Description: It is well known that there are high ACE concentrations in the lungs, kidneys, pre-optic region of the brain and the blood.^4 Localization of the radioactivity in these organs was expected. […] A blocking study was undertaken to differentiate between specific and non-specific binding. ^131 I-3 was prepared as described above and used in this experiment. The experiment was carried out using male CD-1 mice. […] The desired organs were rinsed, blotted, weighed and counted. […]
ENDPOINT NAME: tissue uptake at 1.5 h (%ID/g)
Kindly answer with a numeric value in %ID/g, unit omitted.

Query: Name the reported tissue uptake at 1.5 h value associated with the compound O=C(NCCCC[C@H](N[C@@H](CCc1ccccc1)C(=O)O)C(=O)N1CCC[C@H]1C(=O)O)c1cccc([131I])c1 [^131 I-3, Lisinopril N^ε -radioiodobezamide]
Response: 2.4

---

# EXPERIMENTAL PROTOCOL: Biodistribution of ^131 I-3 in CD-1 Mice, normal and blocked with lisinopril
# Assay type: in vivo
# CONDITION SET: mouse, fat, iv, 1 uCi, 3.0 hours, normal (not blocked); read-out: Biodistribution, Fat
ENDPOINT NAME: tissue uptake at 3 h (%ID/g)
Kindly answer with a numeric value in %ID/g, unit omitted.

Query: Name the reported tissue uptake at 3 h value associated with the compound O=C(NCCCC[C@H](N[C@@H](CCc1ccccc1)C(=O)O)C(=O)N1CCC[C@H]1C(=O)O)c1cccc([131I])c1 [^131 I-3, Lisinopril N^ε -radioiodobezamide]
Response: 0.4

---

# EXPERIMENTAL PROTOCOL: Biodistribution of ^131 I-3 in CD-1 Mice, normal and blocked with lisinopril
# Format: in vivo
# CONDITION SET: mouse, liver, iv, 1 uCi, 0.5 hours, blocked (lisinopril); read-out: Biodistribution, Liver
# Description: It is well known that there are high ACE concentrations in the lungs, kidneys, pre-optic region of the brain and the blood.^4 Localization of the radioactivity in these organs was expected. […] A blocking study was undertaken to differentiate between specific and non-specific binding. ^131 I-3 was prepared as described above and used in this experiment. The experiment was carried out using male CD-1 mice. […] The desired organs were rinsed, blotted, weighed and counted. […]
ENDPOINT NAME: tissue uptake at 0.5 h (%ID/g)
Kindly answer with a numeric value in %ID/g, unit omitted.

Query: Name the reported tissue uptake at 0.5 h value associated with the molecule O=C(NCCCC[C@H](N[C@@H](CCc1ccccc1)C(=O)O)C(=O)N1CCC[C@H]1C(=O)O)c1cccc([131I])c1 [^131 I-3, Lisinopril N^ε -radioiodobezamide]
Response: 7.6

---

# EXPERIMENTAL PROTOCOL: Biodistribution of ^131 I-3 in CD-1 Mice, normal and blocked with lisinopril
# Assay type: in vivo
# CONDITION SET: mouse, kidney, iv, 1 uCi, 3.0 hours, normal (not blocked); read-out: Biodistribution, Kidney
ENDPOINT NAME: tissue uptake at 3 h (%ID/g)
Kindly answer with a numeric value in %ID/g, unit omitted.

Query: Name the reported tissue uptake at 3 h value associated with the compound O=C(NCCCC[C@H](N[C@@H](CCc1ccccc1)C(=O)O)C(=O)N1CCC[C@H]1C(=O)O)c1cccc([131I])c1 [^131 I-3, Lisinopril N^ε -radioiodobezamide]
Response: 6.9

---

# EXPERIMENTAL PROTOCOL: Biodistribution of ^131 I-3 in CD-1 Mice, normal and blocked with lisinopril
# Assay type: in vivo
# CONDITION SET: mouse, kidney, iv, 1 uCi, 6.0 hours, blocked (lisinopril); read-out: Biodistribution, Kidney
ENDPOINT NAME: tissue uptake at 6 h (%ID/g)
Kindly answer with a numeric value in %ID/g, unit omitted.

Query: Name the reported tissue uptake at 6 h value associated with the molecule O=C(NCCCC[C@H](N[C@@H](CCc1ccccc1)C(=O)O)C(=O)N1CCC[C@H]1C(=O)O)c1cccc([131I])c1 [^131 I-3, Lisinopril N^ε -radioiodobezamide]
Response: 0.5

---

# EXPERIMENTAL PROTOCOL: Biodistribution of ^131 I-3 in CD-1 Mice, normal and blocked with lisinopril
# Assay type: in vivo
# CONDITION SET: mouse, liver, iv, 1 uCi, 6.0 hours, blocked (lisinopril); read-out: Biodistribution, Liver
ENDPOINT NAME: tissue uptake at 6 h (%ID/g)
Kindly answer with a numeric value in %ID/g, unit omitted.

Query: Name the reported tissue uptake at 6 h value associated with the compound O=C(NCCCC[C@H](N[C@@H](CCc1ccccc1)C(=O)O)C(=O)N1CCC[C@H]1C(=O)O)c1cccc([131I])c1 [^131 I-3, Lisinopril N^ε -radioiodobezamide]
Response: 0.3

---

# EXPERIMENTAL PROTOCOL: Biodistribution of ^131 I-3 in CD-1 Mice, normal and blocked with lisinopril
# Format: in vivo
# CONDITION SET: mouse, muscle, iv, 1 uCi, 3.0 hours, blocked (lisinopril); read-out: Biodistribution, Muscle
ENDPOINT NAME: tissue uptake at 3 h (%ID/g)
Kindly answer with a numeric value in %ID/g, unit omitted.

Query: Name the reported tissue uptake at 3 h value associated with the compound O=C(NCCCC[C@H](N[C@@H](CCc1ccccc1)C(=O)O)C(=O)N1CCC[C@H]1C(=O)O)c1cccc([131I])c1 [^131 I-3, Lisinopril N^ε -radioiodobezamide]
Response: 0.3

---

# EXPERIMENTAL PROTOCOL: Biodistribution of ^131 I-3 in CD-1 Mice, normal and blocked with lisinopril
# Type: in vivo
# CONDITION SET: mouse, muscle, iv, 1 uCi, 1.5 hours, blocked (lisinopril); read-out: Biodistribution, Muscle
ENDPOINT NAME: tissue uptake at 1.5 h
Please answer using a numeric value trailed by its unit.

Query: Name the reported tissue uptake at 1.5 h value associated with the compound O=C(NCCCC[C@H](N[C@@H](CCc1ccccc1)C(=O)O)C(=O)N1CCC[C@H]1C(=O)O)c1cccc([131I])c1 [^131 I-3, Lisinopril N^ε -radioiodobezamide]
Response: 0.4 %ID/g

---

# EXPERIMENTAL PROTOCOL: Biodistribution of ^131 I-3 in CD-1 Mice, normal and blocked with lisinopril
# Format: in vivo
# CONDITION SET: mouse, stomach, iv, 1 uCi, 3.0 hours, blocked (lisinopril); read-out: Biodistribution, Stomach
ENDPOINT NAME: tissue uptake at 3 h
Please answer using a numeric value trailed by its unit.

Query: Name the reported tissue uptake at 3 h value associated with the compound O=C(NCCCC[C@H](N[C@@H](CCc1ccccc1)C(=O)O)C(=O)N1CCC[C@H]1C(=O)O)c1cccc([131I])c1 [^131 I-3, Lisinopril N^ε -radioiodobezamide]
Response: 12.8 %ID/g

---

# EXPERIMENTAL PROTOCOL: Biodistribution of ^131 I-3 in CD-1 Mice, normal and blocked with lisinopril
# Type: in vivo
# CONDITION SET: mouse, blood, iv, 1 uCi, 3.0 hours, normal (not blocked); read-out: Biodistribution, Blood
ENDPOINT NAME: tissue uptake at 3 h (%ID/g)
Kindly answer with a numeric value in %ID/g, unit omitted.

Query: Name the reported tissue uptake at 3 h value associated with the molecule O=C(NCCCC[C@H](N[C@@H](CCc1ccccc1)C(=O)O)C(=O)N1CCC[C@H]1C(=O)O)c1cccc([131I])c1 [^131 I-3, Lisinopril N^ε -radioiodobezamide]
Response: 3.1

---

# EXPERIMENTAL PROTOCOL: Biodistribution of ^131 I-3 in CD-1 Mice, normal and blocked with lisinopril
# Assay type: in vivo
# CONDITION SET: mouse, fat, iv, 1 uCi, 6.0 hours, blocked (lisinopril); read-out: Biodistribution, Fat
ENDPOINT NAME: tissue uptake at 6 h (%ID/g)
Kindly answer with a numeric value in %ID/g, unit omitted.

Query: Name the reported tissue uptake at 6 h value associated with the molecule O=C(NCCCC[C@H](N[C@@H](CCc1ccccc1)C(=O)O)C(=O)N1CCC[C@H]1C(=O)O)c1cccc([131I])c1 [^131 I-3, Lisinopril N^ε -radioiodobezamide]
Response: 0.1

---

# EXPERIMENTAL PROTOCOL: Biodistribution of ^131 I-3 in CD-1 Mice, normal and blocked with lisinopril
# Format: in vivo
# CONDITION SET: mouse, stomach, iv, 1 uCi, 0.5 hours, blocked (lisinopril); read-out: Biodistribution, Stomach
ENDPOINT NAME: tissue uptake at 0.5 h (%ID/g)
Kindly answer with a numeric value in %ID/g, unit omitted.

Query: Name the reported tissue uptake at 0.5 h value associated with the compound O=C(NCCCC[C@H](N[C@@H](CCc1ccccc1)C(=O)O)C(=O)N1CCC[C@H]1C(=O)O)c1cccc([131I])c1 [^131 I-3, Lisinopril N^ε -radioiodobezamide]
Response: 24.2
